Target Or Test System: Vif function of inhibiting A3G CDA (Human immunodeficiency virus type 1 group M subtype B, UniProt P69723)
Sequence (P69723 whole entry): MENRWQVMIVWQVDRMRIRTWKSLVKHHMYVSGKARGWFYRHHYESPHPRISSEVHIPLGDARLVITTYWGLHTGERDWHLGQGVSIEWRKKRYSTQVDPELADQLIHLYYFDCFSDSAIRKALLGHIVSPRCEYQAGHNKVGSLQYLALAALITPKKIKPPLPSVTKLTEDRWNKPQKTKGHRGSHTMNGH
Method: biochemical
Format: biochemical, HIV-1
Settings: 10 μM compounds; 20% cutoff stringency, i.e. 20% increase in A3G CDA versus controls; positive control set as 1
Source text: The A3G CDA edits the CCC sequence to predominantly to a CCU sequence. To specifically measure the C to U rate, three reverse primers R1, R2, and R3 were designed in the initial study. Using the qPCR-based screening assay described in Example 1, the NCI Diversity Set VI, NCI Mech Set V, and NIH SMR were screened against Vif function of inhibiting A3G. […]
Metric Name: hit for restoring A3G CDA in the presence of Vif

Cn1c(SCc2ccccn2)nc2c1c(=O)[nH]c(=O)n2C: hits
O=c1c(-c2ccc(O)cc2)coc2cc(O)cc(O)c12: hits
COc1cc(-c2ccc(Nc3ccccc3C(=O)O)c(OC)c2)ccc1Nc1ccccc1C(=O)O: hits
C=CC1=C(C(=O)O)N2C(=O)[C@@H](NC(=O)/C(=N\OCC(=O)O)c3csc(N)n3)[C@H]2SC1 [Compound I, cefixime, reference compound]: hits
